- Tested on: SK-MEL-28
- MEASUREMENT DESCRIPTION: SRB colorimetric assay of cell growth and viability, SK-MEL-28
- Format: cell-based, human
- CONDITION SUMMARY: 48 hours exposure; read-out: LC50 MEL-28
Where a SMILES comes first, the peptide text is derived from it. Bridges are numbered along the chain shown (N, C = ends). [ ]: non-standard residue; d: D form. The star is where a group is joined. d(aIle) = CC[C@H](C)[C@@H](N)C(=O)O; d(aThr) = C[C@@H](O)[C@@H](N)C(=O)O; Hexanoyl(5-Me) = CC(C)CCCC(=O)*; Orn = NCCC[C@H](N)C(=O)O; Dhb = C/C=C(\N)C(=O)O
RECORDED METRIC: log10 CC50 (log10 of the value in µM)

| MOLECULE | log10 CC50 |
| --- | --- |
| C/C=C1\NC(=O)[C@H](Cc2ccccc2)NC(=O)[C@@H](C(C)C)NC(=O)[C@@H]([C@@H](C)CC)NC(=O)[C@H](NC(=O)[C@H](NC(=O)[C@H](CCCN)NC(=O)[C@H]2CCCN2C(=O)[C@H](NC(=O)[C@@H](NC(=O)[C@@H](NC(=O)[C@H](NC(=O)CCCC(C)C)C(C)C)C(C)C)C(C)C)C(C)C)[C@@H](C)CC)[C@@H](C)OC(=O)[C@H](C(C)C)NC1=O [Compound 6, [Val^12]-KF] ({Hexanoyl(5-Me)}-[dV]VV[dV][dP][Orn][d(aIle)][d(aThr)][d(aIle)][dV]F[Dhb]V; ester 8-C) | -0.31 |
| C/C=C1\NC(=O)[C@H](Cc2ccccc2)NC(=O)[C@@H](C(C)C)NC(=O)[C@@H](C(C)CC)NC(=O)[C@H](NC(=O)[C@H](NC(=O)[C@H](CCCN)NC(=O)[C@H]2CCCN2C(=O)[C@H](NC(=O)[C@@H](NC(=O)[C@@H](NC(=O)[C@H](NC(=O)CCC(C)CC)C(C)C)C(C)O)C(C)C)C(C)C)C(C)CC)C(C)OC(=O)[C@H](C(C)C)NC1=O (stereo partly drawn) | 0.32 |
| C/C=C1\NC(=O)[C@H](Cc2ccccc2)NC(=O)[C@@H](C(C)C)NC(=O)[C@@H]([C@@H](C)CC)NC(=O)[C@H](NC(=O)[C@H](NC(=O)[C@H](CCCN)NC(=O)[C@H]2CCCN2C(=O)[C@H](NC(=O)[C@@H](NC(=O)[C@@H](NC(=O)[C@H](NC(=O)CCCCCCCCCC)C(C)C)[C@@H](C)O)C(C)C)C(C)C)[C@@H](C)CC)[C@@H](C)OC(=O)[C@H](C(C)C)NC1=O [Compound 15, [Und^14]-KF] | 0.31 |
| C/C=C1\NC(=O)[C@H](Cc2ccccc2)NC(=O)[C@@H](C(C)C)NC(=O)[C@@H]([C@@H](C)CC)NC(=O)[C@H](NC(=O)[C@H](NC(=O)[C@H](CCCN)NC(=O)[C@H]2CCCN2C(=O)[C@H](NC(=O)[C@@H](NC(=O)[C@@H](NC(=O)[C@H]2CCCN2C(=O)CCCC(C)C)[C@@H](C)O)C(C)C)C(C)C)[C@@H](C)CC)[C@@H](C)OC(=O)[C@H](C(C)C)NC1=O [Compound 37, [D-Pro^13]-KF] | 0.11 |
| C/C=C1\NC(=O)[C@H](Cc2ccccc2)NC(=O)[C@@H](C(C)C)NC(=O)[C@@H]([C@@H](C)CC)NC(=O)[C@H](NC(=O)[C@H](NC(=O)[C@H](CCCN)NC(=O)[C@H]2CCCN2C(=O)[C@H](NC(=O)[C@@H](NC(=O)[C@@H](NC(=O)[C@@H](CCC(=O)O)NC(=O)CCCC(C)C)[C@@H](C)O)C(C)C)C(C)C)[C@@H](C)CC)[C@@H](C)OC(=O)[C@H](C(C)C)NC1=O [Compound 39, [D-Glu^13]-KF] | 0.82 |
| C/C=C1\NC(=O)[C@H](Cc2ccccc2)NC(=O)[C@@H](C(C)C)NC(=O)[C@@H]([C@@H](C)CC)NC(=O)[C@H](NC(=O)[C@H](NC(=O)[C@H](CCCN)NC(=O)[C@H]2CCCN2C(=O)[C@H](NC(=O)[C@@H](NC(=O)[C@@H](NC(=O)[C@H](NC(=O)Cc2cc(F)cc(F)c2)C(C)C)[C@@H](C)O)C(C)C)C(C)C)[C@@H](C)CC)[C@@H](C)OC(=O)[C@H](C(C)C)NC1=O [Compound 22, [3,5-dFPhAc^14]-KF] | 0.82 |
| C/C=C1\NC(=O)[C@H](Cc2ccccc2)NC(=O)[C@@H](C(C)C)NC(=O)[C@@H]([C@@H](C)CC)NC(=O)[C@H](NC(=O)[C@H](NC(=O)[C@H](CCCN)NC(=O)[C@H]2CCCN2C(=O)[C@H](NC(=O)CNC(=O)[C@@H](NC(=O)[C@H](NC(=O)CCCC(C)C)C(C)C)[C@@H](C)O)C(C)C)[C@@H](C)CC)[C@@H](C)OC(=O)[C@H](C(C)C)NC1=O [Compound 42, [Gly^11]-KF] ({Hexanoyl(5-Me)}-[dV]TG[dV][dP][Orn][d(aIle)][d(aThr)][d(aIle)][dV]F[Dhb]V; ester 8-C) | 0.84 |
| C/C=C1\NC(=O)[C@H](Cc2ccccc2)NC(=O)[C@@H](C(C)C)NC(=O)[C@@H]([C@@H](C)CC)NC(=O)[C@H](NC(=O)[C@H](NC(=O)[C@H](CCCN)NC(=O)[C@H]2CCCN2C(=O)[C@H](NC(=O)[C@@H](NC(=O)[C@@H](NC(=O)[C@H](NC(=O)CCCC(C)C)[C@H](C)O)[C@@H](C)O)C(C)C)C(C)C)[C@@H](C)CC)[C@@H](C)OC(=O)[C@H](C(C)C)NC1=O [Compound 41, [D-Thr^13]-KF] | 0.60 |
| C/C=C1\NC(=O)[C@H](Cc2ccccc2)NC(=O)[C@@H](C(C)C)NC(=O)[C@@H]([C@@H](C)CC)NC(=O)[C@H](NC(=O)[C@H](NC(=O)[C@H](CCCN)NC(=O)[C@H]2CCCN2C(=O)[C@H](NC(=O)[C@@H](NC(=O)[C@H](CC(C)C)NC(=O)CCCC(C)C)C(C)C)C(C)C)[C@@H](C)CC)[C@@H](C)OC(=O)[C@H](C(C)C)NC1=O [Compound 54, [Leu^12, noD-Val^13]-KF] ({Hexanoyl(5-Me)}-LV[dV][dP][Orn][d(aIle)][d(aThr)][d(aIle)][dV]F[Dhb]V; ester 7-C) | 0.59 |

====

- Test system: LoVo-Dox
- MEASUREMENT DESCRIPTION: SRB colorimetric assay of cell growth and viability, LoVo-Dox
- Assay type: cell-based, human
- CONDITION SUMMARY: 48 hours exposure
- From the text: The finality of this assay is to interrupt the growth of a “in vitro” tumor cell culture by means a continued exhibition of the cells to the sample to be testing. A colorimetric type of assay, using sulforhodamine B (SRB) reaction has been adapted for a quantitative measurement of cell growth and viability [following the technique described by Philip Skehan, et al. (1990), New colorimetric cytotoxicity assay for anticancer drug screening, J. Natl. Cancer Inst., 82:1107-1112]. […]
Where a SMILES comes first, the peptide text is derived from it. Bridges are numbered along the chain shown (N, C = ends). [ ]: non-standard residue; d: D form. The star is where a group is joined. d(aIle) = CC[C@H](C)[C@@H](N)C(=O)O; d(aThr) = C[C@@H](O)[C@@H](N)C(=O)O; hCha = N[C@@H](CCC1CCCCC1)C(=O)O; Hexanoyl(5-Me) = CC(C)CCCC(=O)*; Orn = NCCC[C@H](N)C(=O)O; Dhb = C/C=C(\N)C(=O)O
RECORDED METRIC: GI50 (µM)

| COMPOUND | OBSERVED |
| --- | --- |
| C/C=C1\NC(=O)[C@H](Cc2ccccc2)NC(=O)[C@@H](C(C)C)NC(=O)[C@@H]([C@@H](C)CC)NC(=O)[C@H](NC(=O)[C@H](NC(=O)[C@H](CCCN)NC(=O)[C@H]2CCCN2C(=O)[C@H](NC(=O)[C@@H](NC(=O)[C@@H]2CCCN2C(=O)CCCC(C)C)C(C)C)C(C)C)[C@@H](C)CC)[C@@H](C)OC(=O)[C@H](C(C)C)NC1=O [Compound 55, [Pro^12, noD-Val^13]-KF] ({Hexanoyl(5-Me)}-PV[dV][dP][Orn][d(aIle)][d(aThr)][d(aIle)][dV]F[Dhb]V; ester 7-C) | 7.27 |
| C/C=C1\NC(=O)[C@H](Cc2ccccc2)NC(=O)[C@@H](C(C)C)NC(=O)[C@@H]([C@@H](C)CC)NC(=O)[C@H](NC(=O)[C@H](NC(=O)[C@H](CCCN)NC(=O)[C@H]2CCCN2C(=O)[C@H](NC(=O)[C@H](CCC2CCCCC2)NC(=O)[C@@H](NC(=O)[C@H](NC(=O)CCCC(C)C)C(C)C)[C@@H](C)O)C(C)C)[C@@H](C)CC)[C@@H](C)OC(=O)[C@H](C(C)C)NC1=O [Compound 9, [hCh^11]-KF] ({Hexanoyl(5-Me)}-[dV]T[hCha][dV][dP][Orn][d(aIle)][d(aThr)][d(aIle)][dV]F[Dhb]V; ester 8-C) | 0.0507 |
| C/C=C1\NC(=O)[C@H](Cc2ccccc2)NC(=O)[C@@H](C(C)C)NC(=O)[C@@H]([C@@H](C)CC)NC(=O)[C@H](NC(=O)[C@H](NC(=O)[C@H](CCCN)NC(=O)[C@H]2CCCN2C(=O)[C@H](NC(=O)[C@H](CCC(=O)O)NC(=O)[C@@H](NC(=O)[C@H](NC(=O)CCCC(C)C)C(C)C)[C@@H](C)O)C(C)C)[C@@H](C)CC)[C@@H](C)OC(=O)[C@H](C(C)C)NC1=O [Compound 51, [Glu^11]-KF] ({Hexanoyl(5-Me)}-[dV]TE[dV][dP][Orn][d(aIle)][d(aThr)][d(aIle)][dV]F[Dhb]V; ester 8-C) | 6.63 |
| C/C=C1\NC(=O)[C@H](Cc2ccccc2)NC(=O)[C@@H](C(C)C)NC(=O)[C@@H]([C@@H](C)CC)NC(=O)[C@H](NC(=O)[C@H](NC(=O)[C@H](CCCN)NC(=O)[C@H]2CCCN2C(=O)[C@H](NC(=O)[C@@H](NC(=O)[C@@H](NC(=O)[C@H](NC(=O)CCCC(C)C)C(C)C)[C@@H](C)O)[C@@H](C)O)C(C)C)[C@@H](C)CC)[C@@H](C)OC(=O)[C@H](C(C)C)NC1=O [Compound 50, [Thr^11]-KF] ({Hexanoyl(5-Me)}-[dV]TT[dV][dP][Orn][d(aIle)][d(aThr)][d(aIle)][dV]F[Dhb]V; ester 8-C) | 1.27 |

The measurements presented in this section are drawn from patent US20070117743A1.
